Hi there, I'd appreciate the recorded log10(koff) for every entry that follows.
Molecular target: T1, hIL2Rb-his (human, UniProt P14784 27-240)
T1 sequence: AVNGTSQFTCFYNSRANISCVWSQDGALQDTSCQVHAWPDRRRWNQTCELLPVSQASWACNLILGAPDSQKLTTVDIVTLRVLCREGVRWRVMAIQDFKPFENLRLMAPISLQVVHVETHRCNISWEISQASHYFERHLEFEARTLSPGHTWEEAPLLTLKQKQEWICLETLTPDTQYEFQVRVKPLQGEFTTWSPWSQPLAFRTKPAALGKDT
Experiment: SPR Biacore T200; Mono-Fc VHH captured on Protein A chip, hIL2Rb-his analyte; 1:1 Langmuir fit
Base-10 log of koff, unit s⁻¹.

What the record says about hIL2Rb_VHH5 Mono-Fc VHH (Fc fusion, not shown: a dimerising Fc or GST) QVQLQESGGGSVQVGGSLRLSCATSGDTKSIRCMGWFRQTPGKEREGIAAIDREGFATYADSVYDRFTIAQDNAQNTLYLEMNALKPEDTAMYYCAAQNMCRVVRGAMTGVDYWGKGTQVTVSS : log10(koff) is -2.81

What the record says about hIL2Rb_VHH3 Mono-Fc VHH (Fc fusion, not shown: a dimerising Fc or GST) QVQLQESGGGLVQPGGSLKLSCAASGFRFSNYGMSWVRQAPGEGLEWVSYINGDGSRTHYADSVKGRFTISRDNAKNTLYLQLNSLKTEDTAMYYCEKGLSRDGWSLSAASRGQGTQVTVSS : log10(koff) is -2.16

What the record says about hIL2Rb_VHH1 Mono-Fc VHH (Fc fusion, not shown: a dimerising Fc or GST) QVQLQESGGGSVQAGGSLRLSCVGSGYTYDTSDMSWYRQAPGKEREFVSDIDSGDWAAYADAVKGRFTISRDNAKKTVYLQMNSLEPEDTAMYYCKASYWKWGKLNNFWGPGTQVTVSS : log10(koff) is -1.70

What the record says about hIL2Rb_VHH2 Mono-Fc VHH (Fc fusion, not shown: a dimerising Fc or GST) QVQLQESGGGLVQPGGSLRLSCVASGFTFSNYWIFWVRQAAGKGLEWLSTSNTGGDTTKYADSVKGRFTISRDSAKNTEYLQMNSLKPEDTAVYYCETGRCARSGGYQGTQVTVSS : log10(koff) is -2.65

What the record says about hIL2Rb_VHH7 Mono-Fc VHH (Fc fusion, not shown: a dimerising Fc or GST) QVQLQESGGGSVQAGGSLRLSCAASGYEYCRIHMTWYRQGPGKEREFVSSIGSDGRKTYANSVTGRFTISRDNANHTVYLQMNSLSPEDTAMYYCKTEYLYGLGCPDGSAYWGQGTQVTVSS : log10(koff) is -2.50

What the record says about hIL2Rb_VHH4 Mono-Fc VHH (Fc fusion, not shown: a dimerising Fc or GST) QVQLQESGGGSVQTGGSLRLSCAVSGYTTYSFNYMGWFRQAPGKEREGVAVIYTGGGSTLYADSVKGRFTISQDNAKNTVYLQMNSLKPEDTAMYYCAADDQRFASPLYAYFGYWGQGTQVTVSS : log10(koff) is -2.69

What the record says about hIL2Rb_VHH6 Mono-Fc VHH (Fc fusion, not shown: a dimerising Fc or GST) QVQLQESGGGSVQAGGSLRLSCAASEYTASRYCMAWFRQAPGKEREGVAAIHPGGGTTYYADSVKGRFSISQDSADNTLYLQMNSLKPEDTAMYYCAAGSLWVPFGDRCAANYWGQGTQVTVSS : log10(koff) is -1.64
